- Test system: LOX IMVI melanoma
- experiment: NCI-60 one-dose screen, 48 h (100 = growth as untreated, 0 = no growth, -100 = all killed)
- details: 10 µM unless noted
This is part of a sample that, as a whole, favours compounds with a hit. Of some 83,000 tested, about 20% had one in any assay.
Entries get a class label from measured growth. See ranges: bin 1: < 20%; bin 2: ≥ 20% and < 60%; bin 3: ≥ 60%

Query string: # bin label for Nc1c(C(=O)Nc2ccccn2)sc2nc3c(cc12)C(O)CCC3 (stereo not given)
Result string: bin 2

Query string: Same again, this time with CCN1C(=S)N(CC)C2C1NC(=S)N2/N=C/C=C/c1ccccc1OC (stereo not given)
Result string: bin 1

Query string: Same again, this time with `O=C1/C(=C/c2ccc(C(F)(F)F)cc2)COc2ccc(O)cc21`
Result string: bin 1

These entries and their values trace back to PubChem BioAssay (NCI).
